These entries and their values trace back to patent US6706880B2.

TARGET_OF_ASSAY: dopamine transporter (UniProt P23977)
Type: binding
ASSAY_SETUP: DA=[3H]WIN 35,428; read-out: DA IC50 for inhibition of radioligand binding
pIC50: −log10 of the molar value.
RESULT_TYPE: pIC50

{"columns": ["COMPOUND", "TARGET_OF_ASSAY", "RESULT_TYPE", "VALUE_REPORTED"],
 "data": [
  ["COC(=O)C1CN2C3CCC2C(C1=O)C(c1ccc(Cl)cc1)C3 (stereo not shown) [RTI-4229-242]", "dopamine transporter (UniProt P23977)", "pIC50", 8.12]
]}

---

TARGET_OF_ASSAY: norepinephrine transporter (UniProt Q9WTR4)
PROTOCOL_DESCRIPTION: Inhibition of [3H]nisoxetine radioligand binding at the norepinephrine transporter
ASSAY_SETUP: read-out: IC50 NE [3H]-nisoxetine; Table IV
pIC50: −log10 of the molar value.
Quick list: pIC50 per entry.

{"columns": ["COMPOUND", "RELATIONAL_OPERATOR", "pIC50"],
 "data": [
  ["CN1[C@H]2CC[C@@H]1[C@@H](C#N)[C@@H](c1ccc(Cl)cc1)C2", "=", 5.60],
  ["Cc1ccc(C2CC3CCC(C2C(C)C)N3C)cc1 (stereo not shown)", "=", 7.45],
  ["CN1[C@H]2CC[C@@H]1[C@@H](C(=O)O)[C@@H](c1ccc(F)cc1)C2", "<", 4.00],
  ["Cc1ccc(C2CC3CCC(C2CN(C)C)N3C)cc1 (stereo not shown)", "=", 6.86]
]}

---

TARGET_OF_ASSAY: UniProt:Q9WTR4
PROTOCOL_DESCRIPTION: Inhibition of [3H]nisoxetine radioligand binding at the norepinephrine transporter
ASSAY_SETUP: read-out: NEN IC50 for inhibition of radioligand binding; NEN=[3H] nisoxetine
pIC50: −log10 of the molar value.
Response key: Condition met means pIC50 >= 6; Condition not met means pIC50 < 6.

{"columns": ["MOLECULE", "LABEL_VALUE"],
 "data": [
  ["Cc1ccc(C2CC3CCC(C2CN(C)C)N3C)cc1 (centres unmarked)", "Condition met"],
  ["CCC(CC)OC(=O)C1C(c2ccc(C)cc2)CC2CCC1N2C (centres unmarked)", "Condition not met"],
  ["Cc1ccc(C2CC3CCC(C2C(C)C)N3C)cc1 (centres unmarked)", "Condition met"],
  ["C=C(C)c1ccc(C2CC3CCC(C2C(=O)OC)N3C)cc1 (centres unmarked)", "Condition not met"]
]}

---

TARGET_OF_ASSAY: serotonin transporter (Rattus norvegicus)
Construct: from tissue
Sequence (P31652 whole entry): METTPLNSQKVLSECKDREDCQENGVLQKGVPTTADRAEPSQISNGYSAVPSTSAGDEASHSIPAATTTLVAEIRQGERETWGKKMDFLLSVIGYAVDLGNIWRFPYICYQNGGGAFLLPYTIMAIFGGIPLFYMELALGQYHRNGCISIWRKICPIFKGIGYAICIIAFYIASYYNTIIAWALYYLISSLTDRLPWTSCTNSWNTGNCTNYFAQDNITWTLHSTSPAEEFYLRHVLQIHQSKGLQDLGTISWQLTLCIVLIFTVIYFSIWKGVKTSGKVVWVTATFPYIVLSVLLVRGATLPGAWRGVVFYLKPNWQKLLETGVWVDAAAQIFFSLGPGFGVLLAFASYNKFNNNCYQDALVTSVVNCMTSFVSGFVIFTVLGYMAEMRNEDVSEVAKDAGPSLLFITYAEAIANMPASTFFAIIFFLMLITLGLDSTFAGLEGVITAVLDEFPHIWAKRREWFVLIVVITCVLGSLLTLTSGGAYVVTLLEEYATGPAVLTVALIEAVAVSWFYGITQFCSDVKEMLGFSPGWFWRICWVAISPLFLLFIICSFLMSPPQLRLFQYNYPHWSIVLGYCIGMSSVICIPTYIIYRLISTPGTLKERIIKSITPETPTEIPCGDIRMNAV
PROTOCOL_DESCRIPTION: Inhibition of [3H]paroxetine radioligand binding at the serotonin transporter
ASSAY_SETUP: 5-HT IC50 for inhibition of radioligand binding, 5-HT=[3H] paroxetine
pIC50: −log10 of the molar value. Structures can show the parent of a compound that is named as a salt.
Quick list: pIC50 per entry.
RESULT_TYPE: pIC50

{"columns": ["MOLECULE", "RESULT_TYPE", "VALUE_REPORTED"],
 "data": [
  ["CN1[C@H]2CC[C@@H]1[C@@H](c1nc3ccccc3s1)[C@@H](c1ccc(Cl)cc1)C2 [RTI-4229-202, Hydrochloride]", "pIC50", 5.95],
  ["CN1C2CCC1C(CO)C(c1ccc(I)cc1)C2 (stereo not shown)", "pIC50", 7.59],
  ["CN1[C@H]2CC[C@@H]1[C@@H](c1ncc(-c3ccccc3)s1)[C@@H](c1ccc(Cl)cc1)C2 [RTI-4229-219, Hydrochloride]", "pIC50", 4.99],
  ["Cc1ccc([C@H]2C[C@@H]3CC[C@H]([C@H]2c2nnc(C)o2)N3C)cc1 [RTI-4229-194, Hydrochloride]", "pIC50", 5.31]
]}
